Test: solvent given as SMILES
Settings: in ClCCl
result.type: fluorescence lifetime (ns)
Give your result in ns as a bare value.

Inquiry: Answer with the recorded fluorescence lifetime of `O=C(O)c1c2ccccc2nc2ccccc12` only.
Reply text: 0.9

Inquiry: Answer with the recorded fluorescence lifetime of `CC1=C(c2ccc(N(C)C)cc2)C(C)=[N+]2C1=C(c1c(-c3ccccn3)nc3ccccn13)c1c(C)c(-c3ccc(N(C)C)cc3)c(C)n1[B-]2(F)F` only.
Reply text: 0.2

Inquiry: Answer with the recorded fluorescence lifetime of `CC1(C)C(/C=C/C2=C(c3ccc(C(=O)O)cc3)C(=C/C=C3/N(CCCCS(=O)(=O)[O-])c4ccccc4C3(C)C)/CC2)=[N+](CCCCS(=O)(=O)[O-])c2ccccc21` only.
Reply text: 1.17

Inquiry: Answer with the recorded fluorescence lifetime of `COc1ccc(C2=CC(c3ccc4cc(N(C)C)ccc4c3)=[O+][B-](F)(F)O2)cc1` only.
Reply text: 2.71

Inquiry: Answer with the recorded fluorescence lifetime of F[B-]1(F)n2c(c3c(c2-c2ccccc2)C2C=CC3CC2)C(c2ccccc2)=C2C3=C(C(c4ccccc4)=[N+]21)C1C=CC3CC1 (configuration not stated) only.
Reply text: 6.1

Inquiry: Answer with the recorded fluorescence lifetime of `Cn1cc(-c2nc3ccccc3nc2/C=C/N2CCCC2)c2ccccc21` only.
Reply text: 7.01

Inquiry: Answer with the recorded fluorescence lifetime of `CCCCCCOc1cc(/C=C/c2cc(OCCCCCC)c(/C=C/c3cc(OCCCCCC)c(C=O)cc3OCCCCCC)cc2OCCCCCC)c(OCCCCCC)cc1C=O` only.
Reply text: 1.77
